The values you see were collected from PubChem BioAssay AID1963844.

Tested on: 422866-222-R5-J1-PDC complex spheroid viability;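 further: spheroids exposed to compounds for one week before readout; percent of DMSO vehicle wells luminescence so 100% = untreated viability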
Experiment: Anticancer human tumor 422866-222-R5-J1-PDC patient-derived pancreatic adenocarcinoma cell line growth inhibition [POLQ]
Details: second compound 0.1 µM; first compound 3.16 µM; stronger effect = lower value
Method: Multicellular complex tumor spheroid response to Polymerase (POL) inhibitors (novobiocin, ART-558, RP6685) in combination with a variety of drugs and investigational agents in selected tumor cell lines The POL inhibitors (novobiocin, ART-558, and RP6685) were evaluated both individually and in combination with standard of care and investigational anticancer small molecules within a complex spheroid model of solid tumors. . […]
# viability, T/C listing for each entry below
Field format: number, assumed %, no unit text.

Some solved entries appear below for comparison.
• CC(C)n1c(=O)n(C)c2cnc3cc(F)c(-c4ccc(OCCCN5CCCCC5)nc4)cc3c21 + Cc1cccc(N(C)C(=O)C2C(O)CCN2c2nc(C)cc(C(F)(F)F)c2C#N)c1 = 96.3
• COc1cc(C2c3cc4c(cc3C(OC3OC5COC(C)OC5C(O)C3O)C3COC(=O)C23)OCO4)cc(OC)c1O (centres undefined) + Nc1ccc(C#CCN(C(=O)Cc2ncc(C(F)(F)F)cc2C(F)(F)F)c2ccc(F)cc2)nn1 = 31.2
• C=CC(=O)N1CCN(c2nc(=O)n(-c3c(C)ccnc3C(C)C)c3nc(-c4c(O)cccc4F)c(F)cc23)C(C)C1 (centres undefined) + Nc1ccc(C#CCN(C(=O)Cc2ncc(C(F)(F)F)cc2C(F)(F)F)c2ccc(F)cc2)nn1 = 23.7

Lab book: viability, T/C of O=C(c1cc(Cc2n[nH]c(=O)c3ccccc23)ccc1F)N1CCN(C(=O)C2CC2)CC1 + Cc1cccc(N(C)C(=O)C2C(O)CCN2c2nc(C)cc(C(F)(F)F)c2C#N)c1 noted as 87.5
